- Test system: HS 578T breast
- run description: NCI-60 one-dose screen, 48 h (100 = growth as untreated, 0 = no growth, -100 = all killed)
- cond: 10 µM unless noted
Compounds without any hit were thinned out: in the full panel of roughly 83,000, 20% have a hit.
Just so you know, the groups by growth go like this: low: < 30%; medium: ≥ 30% and < 90%; high: ≥ 90%

• O=C1/C(=C/c2ccc(Cl)cc2)SC(=S)N1CCc1ccc(O)cc1 = medium
• O=C1C=C(O)C(=O)C(CC2=C(O)C(=O)C=C(O)C2=O)=C1O = high
• CC1=C[C@H]2c3c(c(O)c(O)c4oc5cc(O)ccc5c(=O)c34)[C@H](c3cc(O)c(O)c4oc5cc(O)ccc5c(=O)c34)[C@H]2C(C)(C)C1 = low
• CC1=C(O)C(=O)C(C(C#N)(C#N)C(C#N)C#N)C1 (stereo not given) = high
• Cc1ccccc1COc1ccc(-c2ccnn2-c2ccc(Cl)cc2)cc1 = medium
• N#Cc1c(-c2ccc(Cl)cc2)nc(N/N=C/c2cccc(Br)c2)nc1N1CCOCC1 = medium
• Cc1ccc(NS(=O)(=O)c2ccc(-c3cnc(C4CC4)o3)cc2)cc1C = low
• Cn1cccc1-c1nc2c3c(ccc2[nH]1)C(=O)c1ccccc1C3=O = high
• O=C1c2ccccc2C(=O)c2c(N=Nc3[nH]c(=S)[nH]c3O)cccc21 = low

----------
- Tested on: SF-268 CNS
- run description: NCI-60 one-dose screen, 48 h
- cond: 10 µM unless noted
The panel holds about 83,000 compounds, 20% with a hit somewhere; the sample as a whole holds those more often. Active and inactive are the calls of the source. How the source made its calls: active means growth percent below 10; inactive means the rest.
Labels: TRUE = active, FALSE = inactive

* Oc1cccc(-c2nc(N3CCOCC3)c3c4c(sc3n2)CCCC4)c1 | FALSE
* COc1ccc(-c2nnc(SCC(=O)c3ccc(Cl)cc3)o2)cc1 | FALSE
* CCN1CCC2(CC1)NC(=O)c1c(c3ccc(Cl)c(Cl)c3n1C)C2C#N (centres undefined) | FALSE
* CC(=O)O[C@H]1C(=O)[C@@]2(C)[C@H]([C@H](OC(=O)c3ccccc3)[C@]3(O)C[C@H](OC(=O)[C@H](OC(=O)CCC(=O)OC4CCC(S/N=C(N)/N=C(\N)N(C)C)CC4)[C@@H](NC(=O)c4ccccc4)c4ccccc4)C(C)=C1C3(C)C)[C@]1(OC(C)=O)CO[C@@H]1C[C@@H]2O (some centres undefined) | FALSE
* O=C1c2ccccc2C(=O)c2c(N=Nc3[nH]c(=S)[nH]c3O)cccc21 | FALSE
* O=C(CN1CCCCC1)Nc1ccc2oc(=O)ccc2c1 | FALSE
* Cc1cc(N2CCCCCC2)nc(NC2CCCC(Nc3ccnc4cc(Cl)ccc34)C2)n1 (centres undefined) | TRUE
* CCOC(=O)c1c(CN2CCN(C)CC2)nc2ccc(Cl)cc2c1-c1ccccc1 | FALSE
* CCOc1cc2ncc(C#N)c(Nc3ccc(OCc4cccc(F)c4)c(Cl)c3)c2cc1NC(=O)CCCCC1CCSS1 (centres undefined) | FALSE
* OCC(O)c1nc2ccc3[nH]ncc3c2c2c1CCCC2 (centres undefined) | TRUE
* COCCNc1ccc2c3c(cccc13)C(=O)N(CCN(C)C)C2=O | FALSE
* NC(CSC(c1ccccc1)(c1ccccc1)c1ccc(Cl)cc1)C(=O)O (centres undefined) | FALSE
* COc1ccc(C(=O)COc2cccc(/C=C3\CSc4ccccc4C3=O)c2)cc1 | FALSE
* Cc1ccc(NC(=O)/C=C/c2ccccc2)c(C(N)=O)c1 | FALSE
* O=C1c2cccc3cccc(c23)C(=O)N1CCCCCN1CCN(CCCCCOc2ccc(-c3nc4ccc(N5CCOCC5)cc4[nH]3)cc2)CC1 | FALSE
* C#Cc1cccc(NC(=O)c2ccccc2NC(=O)C=C)c1 | FALSE
* COc1cccc(/C=C2\Oc3cc(OCCN4CCCC4)ccc3C2=O)c1 | FALSE
* Cn1c(=O)c2c(nc3n(-c4ccc(Cl)cc4Cl)c(Sc4nc(-c5ccccc5)c(C#N)c(=O)[nH]4)cn23)n(C)c1=O | FALSE
* O=C1CC(=NCC(=O)n2c(-c3ccccc3)nc3ccccc32)NN1 | FALSE

----------
Quick reference for growth among some compounds
- Tested on: IGROV1 ovarian
- run description: NCI-60 one-dose screen, 48 h (100 = growth as untreated, 0 = no growth, -100 = all killed)
- cond: 10 µM unless noted
The panel holds about 83,000 compounds, 20% with a hit somewhere; the sample as a whole holds those more often.
value type: growth (%)

* COc1cccc2c1C(=O)c1c(O)c3c(c(O)c1C2=O)C[C@](O)(C(=O)CO)C[C@H]3O[C@@H]1C[C@@H](NC(=O)CCCCCN(C)C2(c3ccc(F)cc3)CC3CCC2C3)[C@H](O)[C@@H](C)O1 (some centres undefined) | 56
* COc1cccc(-c2nc3sccn3c2-c2ccnc(NCCNS(=O)(=O)c3ccccc3)c2)c1 | 25.5
* COc1cc2nc(N3CCCC3)nc(NCC3CCCCC3)c2cc1OC | 72.3
* CSc1nc(NCc2ccccc2)c(C#N)c(-c2cccc([N+](=O)[O-])c2)n1 | 99.9

----------
- Tested on: CCRF-CEM leukemia
- run description: NCI-60 one-dose screen, 48 h (100 = growth as untreated, 0 = no growth, -100 = all killed)
- cond: 10 µM unless noted
About 83,000 compounds went through this panel and 20% of them were active in at least one assay; those are over-represented in the sample as a whole.
We label by threshold. Values of growth strictly beneath 30% are TRUE. Values of 30% and up are FALSE.

• CC(C)CSc1nc(N)nc2c1ncn2C1OC(CO)C(O)C1O (centres undefined) = FALSE
• O=c1cc(/C(=C2/C=CC=N2)c2ccc[nH]2)c2cc(Cl)ccc2o1 = TRUE
• CN1CCN(CCCOc2cccc3nc(Nc4ccc(Cl)c(F)c4)ccc23)CC1 = TRUE
• COc1cc(-c2nn(C)nc2-c2cc3ccccc3s2)cc(OC)c1OC = TRUE
• CC(C)n1c(/C=C/[C@@H](O)C[C@@H](O)CC(=O)O)c(-c2ccc(F)cc2)c2ccccc21 = FALSE
• COc1ccc(/C=C\c2cc(OC)c(OC)c(OC)c2)cc1OC(=O)c1cccc(Cn2cc(CCOC(=O)[C@H](N)Cc3cn(C)c4ccccc34)nn2)c1 = TRUE
• COc1ccc(C(=O)/C=C/c2cccnc2Nc2cc(OC)c(OC)c(OC)c2)cc1 = TRUE
• N#Cc1c(-c2ccc(Cl)cc2)nc(N/N=C/c2cccc(Br)c2)nc1N1CCOCC1 = FALSE
• COc1ccc(-c2cc(NC(=O)Nc3ccc4ncsc4c3)no2)cc1 = FALSE

----------
- System: SNB-19 CNS
- run description: NCI-60 one-dose screen, 48 h (100 = growth as untreated, 0 = no growth, -100 = all killed)
- cond: 10 µM unless noted
The panel holds about 83,000 compounds, 20% with a hit somewhere; the sample as a whole holds those more often.
value type: growth (%)

• Fc1ccc(CNc2cccc3[nH]c(C(F)(F)F)nc23)cc1 = 79.2
• COc1cc2c(cc1-c1c(C)noc1C)ncc1nc(C3CCCC3)n([C@H](C)COC(F)F)c12 = 49.5
• COc1cc(Nc2cc(C)nc(N3CCN(c4ccnc5cc(Cl)ccc45)CC3)n2)cc(OC)c1 = 27.5
• O=C1NC(=O)C(c2ccc(Cl)cc2Cl)N1 (centres undefined) = 97.1
• O=C(/C=C/c1cccc(Cl)c1)c1ccc(O)c(CN2CCN(c3cc4c(cc3F)c(=O)c(C(=O)O)cn4C3CC3)CC2)c1 = 35.9
• Cc1ccc2c(C(C[N+](=O)[O-])c3ccccc3F)c(-c3ccccc3)[nH]c2c1 (centres undefined) = 49.1
• CC(=O)Nc1ccc(-n2c(O)c(/C=N/NC(=O)Cc3ccccc3Nc3c(Cl)cccc3Cl)sc2=S)cc1 = 96.4
• O=C(N=Nc1c(O)[nH]c2ccccc12)c1cc(-c2ccccc2)on1 = 100
• COc1ccc(Nc2nc(SC)nc(-c3cccc([N+](=O)[O-])c3)c2C#N)cc1 = 79

----------
- Tested on: ACHN renal
- run description: NCI-60 one-dose screen, 48 h
- cond: 10 µM unless noted
About 83,000 compounds went through this panel and 20% of them were active in at least one assay; those are over-represented in the sample as a whole. Calls of active or inactive are those of the source. Rule for the calls: active = growth percent below 10; inactive = the rest.
Classes used: t for active, f for inactive

* COc1ccc(/C=C\c2cc(OC)c(OC)c(OC)c2)cc1OCC(=O)Nc1ccc2nc(C)sc2c1 | f
* CN(C)C(=S)N=Nc1c(O)[nH]c2ccccc12 | f
* C#CCOc1ccc2ncnc(N3CCN(C(=O)CCl)CC3)c2c1 | t
* Cc1cc(NS(=O)(=O)c2ccc(-c3cnc(C4CC4)o3)cc2)ccc1Cl | f
* O=C1OCC2=C1C(c1ccncc1)c1cc3c(cc1N2CCO)OCO3 (centres undefined) | f
* COc1ccc(-c2nc3ccc(-c4nc5ccc(N6CCN(c7ccc(F)cc7)CC6)cc5[nH]4)cc3[nH]2)cc1OC | f
* COc1ccc(-n2nc(C)c3c(Nc4ccc(NC(=O)Nc5ccc(Cl)c(C(F)(F)F)c5)cc4)ncnc32)cc1 | t
* CN(C)c1ccc(NC(=O)c2ccc(/C=C/C(=O)c3ncc[nH]3)cc2)cc1 | f
* COC[C@H](C)n1c(C2CCOCC2)nc2cnc3cc(-c4c(C)noc4C)c(OC)cc3c21 | f
* COc1ccc(C2Nc3c(c(C(C)(C)C)nn3-c3ccccc3)C(=O)CS2)cc1 (centres undefined) | f
* Nc1n[nH]c2ccc([C@@H]3Nc4ccc5[nH]ncc5c4[C@H]4C5C=CC(C5)[C@@H]34)cc12 (some centres undefined) | f
* N=C(N)c1ccc(-c2ccc(-c3ccc4ccccc4c3)s2)s1 | f
* CN1CCN(c2ccc3nc(-c4ccc(OCCCCN5CCN(CCCCN6C(=O)c7cccc8cccc(c78)C6=O)CC5)cc4)[nH]c3c2)CC1 | f
* COc1cc2c(cc1OC)C(Sc1ccc(SC)cc1)c1c(nc(N)c(C#N)c1N)O2 (centres undefined) | t
* Cc1ncc(C(=O)Nc2ccc(CN3CCN(C)CC3)c(C(F)(F)F)c2)cc1C#Cc1cnc2cccnn12 | t
* Cc1cc(N2CCN(c3ccnc4cc(Cl)ccc34)CC2)nc(NC2CCCCC2)n1 | f
* Cc1cc(C)nc(SC2=C(Nc3cccc(Cl)c3)C(=O)N(Cc3ccccc3)C2=O)n1 | f
* O=C1/C(=C/c2ccccc2)SC(=S)N1CCc1ccc(O)cc1 | f
* COc1ccc(C2CC(c3ccc4ccccc4c3)=NN2/C=C2\SC(=S)N(NC(=O)Cc3ccccc3Nc3c(Cl)cccc3Cl)C2=O)cc1 (centres undefined) | f

// provenance: PubChem BioAssay (NCI)
